Tested on: OVCAR-3 ovarian
test method notes: NCI tumour cell line growth inhibition, 48 h
Measured TGI by item

A selection of reference data follows.
compound	result
Cc1cccc2c1N(C(=O)/C=C\C(=O)O)C(c1c(C)[nH]c3ccccc13)C2 (stereo not drawn)	> 10 µM
Nc1nc(OCc2cc(Br)cs2)c2[nH]cnc2n1	> 100 µM

Turning now to a further record.
State TGI (OVCAR-3 ovarian) of CCOC(=O)c1c(Cl)nc2ccccc2c1N=[N+]=[N-] . 39.7 µM

----------
Measured TGI by item
System: PC-3 prostate
test method notes: NCI tumour cell line growth inhibition, 48 h

structure as smiles	TGI
Cc1cc(O)ccc1C1=NN(c2ccc(S(C)(=O)=O)cc2)C(=O)CC1	> 100 µM
O=c1oc2ccccc2c(O)c1/C=N/C(=S)NCCc1ccccc1	> 100 µM

Turning now to a further record.
State TGI (PC-3 prostate) of COCCCNC(=O)C1=C(C)NC(C)=C(C(=O)NCCCOC)C1 . > 100 µM
